Target: T1, soluble cynomolgus GPNMB (recombinant extracellular domain) (cynomolgus, UniProt Q14956 23-499 (human entry), limits assumed)
T1 chain: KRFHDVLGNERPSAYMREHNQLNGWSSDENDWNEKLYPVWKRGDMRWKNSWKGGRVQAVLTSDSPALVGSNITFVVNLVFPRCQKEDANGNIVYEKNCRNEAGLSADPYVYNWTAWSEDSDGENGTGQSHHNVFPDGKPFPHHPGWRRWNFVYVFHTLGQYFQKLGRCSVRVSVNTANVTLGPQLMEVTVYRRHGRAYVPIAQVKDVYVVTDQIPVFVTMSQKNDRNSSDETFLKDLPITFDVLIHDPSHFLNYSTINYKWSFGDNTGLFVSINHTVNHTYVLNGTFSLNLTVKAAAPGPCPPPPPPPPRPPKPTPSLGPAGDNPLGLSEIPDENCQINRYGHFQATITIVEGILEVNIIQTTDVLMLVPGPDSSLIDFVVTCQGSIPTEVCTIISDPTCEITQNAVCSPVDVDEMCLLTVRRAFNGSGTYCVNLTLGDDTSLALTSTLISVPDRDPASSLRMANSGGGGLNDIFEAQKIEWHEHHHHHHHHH
Test: SPR Biacore, IgG captured
Description: Binding kinetics of the humanized and affinity matured anti-GPNMB antibodies described above were evaluated using the Biacore T200 (Cytiva). […] Data were analyzed using Biacore evaluation software to generate kinetic constants. The equilibrium dissociation constants (KD) were calculated from the fitted association and dissociation rate constants (k-on and k-off) for each of the anti-GPNMB antibodies.
assay.readout: Kd (nM)
Number only, in nM; omit the unit.

binder="anti-GPNMB antibody GPN-84 (antibody, V domains shown) VH: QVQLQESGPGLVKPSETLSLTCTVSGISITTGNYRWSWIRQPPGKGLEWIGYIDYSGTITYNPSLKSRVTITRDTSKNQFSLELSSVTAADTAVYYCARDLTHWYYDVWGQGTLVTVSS VL: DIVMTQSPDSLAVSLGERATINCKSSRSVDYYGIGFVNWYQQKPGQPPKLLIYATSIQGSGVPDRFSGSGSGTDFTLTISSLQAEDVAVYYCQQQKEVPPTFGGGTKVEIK" unit_name=nM val=10.3
binder="anti-GPNMB antibody GPN-96 (antibody, V domains shown) VH: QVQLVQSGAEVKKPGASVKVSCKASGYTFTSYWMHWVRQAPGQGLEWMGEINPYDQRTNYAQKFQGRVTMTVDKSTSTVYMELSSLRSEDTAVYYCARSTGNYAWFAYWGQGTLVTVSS VL: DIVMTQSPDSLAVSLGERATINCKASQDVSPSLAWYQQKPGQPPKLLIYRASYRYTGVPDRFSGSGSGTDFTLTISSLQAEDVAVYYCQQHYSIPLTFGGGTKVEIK" unit_name=nM val=3.2

Input line: # query: Kd of entry anti-GPNMB antibody GPN-98 (antibody, V domains shown) VH: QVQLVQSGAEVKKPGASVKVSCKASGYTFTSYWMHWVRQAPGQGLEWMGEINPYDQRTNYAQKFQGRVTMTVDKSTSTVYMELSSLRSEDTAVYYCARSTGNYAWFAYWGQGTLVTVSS VL: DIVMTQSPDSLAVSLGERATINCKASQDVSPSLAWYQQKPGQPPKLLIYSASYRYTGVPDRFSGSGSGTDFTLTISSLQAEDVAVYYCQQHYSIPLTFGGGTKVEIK
Output line: 14.6

Sourced from patent US20250270343A1
